# study system: human DGKζ (Homo sapiens, UniProt Q13574)
# Construct: TVMV protease cleavage site (C); Hexa-His (C); made in house; host or cells: Sf9 insect cells (baculovirus, Bac-to-Bac)
# Sequence (Q13574 with tags, fused parts or gaps isoform Q13574-4): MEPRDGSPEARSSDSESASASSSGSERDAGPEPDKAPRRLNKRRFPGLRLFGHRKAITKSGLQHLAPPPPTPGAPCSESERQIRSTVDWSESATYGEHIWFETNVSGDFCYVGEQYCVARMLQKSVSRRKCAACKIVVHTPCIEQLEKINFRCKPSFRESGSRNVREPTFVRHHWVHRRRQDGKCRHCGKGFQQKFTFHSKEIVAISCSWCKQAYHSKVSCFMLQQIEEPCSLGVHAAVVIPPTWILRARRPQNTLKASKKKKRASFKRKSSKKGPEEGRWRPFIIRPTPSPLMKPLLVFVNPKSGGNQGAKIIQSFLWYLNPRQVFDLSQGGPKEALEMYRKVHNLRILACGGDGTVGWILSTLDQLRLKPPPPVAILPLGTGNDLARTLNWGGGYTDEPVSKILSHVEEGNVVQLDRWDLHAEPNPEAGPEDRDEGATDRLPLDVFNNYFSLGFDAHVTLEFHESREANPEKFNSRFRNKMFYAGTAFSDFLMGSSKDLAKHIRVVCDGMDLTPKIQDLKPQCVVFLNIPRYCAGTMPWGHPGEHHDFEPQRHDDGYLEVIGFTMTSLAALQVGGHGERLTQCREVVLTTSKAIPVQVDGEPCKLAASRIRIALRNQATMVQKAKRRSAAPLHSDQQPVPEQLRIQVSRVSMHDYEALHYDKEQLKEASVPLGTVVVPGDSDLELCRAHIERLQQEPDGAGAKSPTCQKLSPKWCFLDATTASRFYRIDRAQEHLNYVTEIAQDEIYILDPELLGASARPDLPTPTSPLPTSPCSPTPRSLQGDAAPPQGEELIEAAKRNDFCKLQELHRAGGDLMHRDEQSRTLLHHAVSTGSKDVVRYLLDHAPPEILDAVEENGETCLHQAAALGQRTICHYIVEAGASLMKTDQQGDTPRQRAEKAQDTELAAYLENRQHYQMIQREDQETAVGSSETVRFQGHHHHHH
# procedure summary: DGKζ LIPGLO assay (extruded liposome substrate), in vitro DGK inhibition
# Format: biochemical
# applied conditions: DGKζ liposome (LIPGLO) assay; read-out: DGKz LIPGLO IC50
So I've got a bunch of molecules here, and I need their pIC50 values.
One number for each entry, as −log10 of the molar value.

// below: answered molecules
INSERT INTO measurements (molecule, observation_type, measurement) VALUES
  ('Cc1ccc(C(c2ncccc2F)N2CCN(c3c(C#N)c(=O)n(C)c4ccc(C#N)nc34)C[C@H]2C)cc1 (single isomer, unassigned) [Example 890]', 'pIC50', 5.08),
  ('C[C@@H]1CN(c2c(C#N)c(=O)n(C)c3ccc(C#N)nc23)[C@@H](C)CN1C(c1ccc(F)cc1)c1ccc(C(F)(F)F)cn1 (single isomer, unassigned) [Example 836]', 'pIC50', 5.31),
  ('C[C@@H]1CN(c2cc(=O)n(C)c3ccc(C#N)nc23)[C@@H](C)CN1C(c1ccc(F)cc1)c1nc(C(F)F)no1 (stereo partly drawn) [Example 743]', 'pIC50', 5.80);

List reported pIC50 for each of these molecules:
1. C[C@@H]1CN(c2c(C#N)c(=O)n(C)c3ccc(C#N)nc23)CCN1Cc1ccccc1C(F)(F)F
2. C[C@@H]1CN(c2c(C#N)c(=O)n(C)c3ccc(C#N)nc23)[C@@H](C)CN1C(c1ccc(F)cc1)c1cc(C2CC2)on1 (single isomer, unassigned) [Example 869]
3. CC(c1ccc(F)cc1F)N1CCN(c2c(C#N)c(=O)n(C)c3ccc(C#N)nc23)C[C@H]1C (single isomer, unassigned) [Example 970]
4. Cc1ccc(C(c2ccc(F)cc2)N2C[C@H](C)N(c3c(C#N)c(=O)n(C)c4ccc(C#N)nc34)C[C@H]2C)cc1 (stereo partly drawn) [Example 817]
5. C[C@@H]1CN(c2c(C#N)c(=O)n(C)c3ccc(C#N)nc23)CCN1C(c1ccc(F)cc1)c1cccc(C(F)(F)F)n1 (single isomer, unassigned) [Example 922]
6. C[C@@H]1CN(c2c(C#N)c(=O)n(C)c3ccc(C#N)nc23)CCN1Cc1ccccc1Cl
7. C[C@@H]1CN(c2c(C#N)c(=O)n(C)c3ccc(C#N)nc23)CCN1C(c1ccc(Cl)cc1)c1ccc2c(c1)OC(F)(F)O2 (single isomer, unassigned) [Example 942]

Response:
5.72
4.85
4.55
5.07
6.11
5.48
5.55

Query: Identify pIC50 associated with the molecule CCc1noc(C(c2ccc(F)cc2)N2C[C@H](C)N(c3cc(=O)n(C)c4ccc(C#N)nc34)C[C@H]2C)n1 (single isomer, unassigned) [Example 753]
Response: 6.80

----------
Provide the recorded IC50 for the entries that follow.
# study system: human DGKζ (Homo sapiens)
# Construct: TVMV protease cleavage site (C); Hexa-His (C); made in house; host or cells: Sf9 insect cells (baculovirus, Bac-to-Bac)
# procedure summary: DGKζ LIPGLO assay (extruded liposome substrate), in vitro DGK inhibition
# Type: biochemical
# applied conditions: liposome (LIPGLO) assay; read-out: DGKz LIPGLO IC50
Answers are plain numbers, in µM.

Completed entries (count: 2):
INSERT INTO assay_data (compound, study_system, observation_type, units_text, measurement) VALUES
  ('CC(c1ccc(C(F)(F)F)cn1)N1C[C@H](C)N(c2cc(=O)n(C)c3ccc(C#N)nc23)C[C@H]1C (single isomer, unassigned) [Example 643]', 'human DGKζ (Homo sapiens)', 'IC50', 'µM', 1.6),
  ('C[C@@H]1CN(c2cc(=O)n(C)c3ccc(C#N)nc23)[C@@H](C)CN1Cc1c(F)cccc1Cl [Example 261]', 'human DGKζ (Homo sapiens)', 'IC50', 'µM', 1.1);

Let us move to another entry and its IC50.
Query: Give recorded IC50. CC[C@H]1CN(C(C)c2ccc(OC(F)(F)F)cc2F)[C@H](CC)CN1c1cc(=O)n(C)c2ccc(C#N)nc12 (single isomer, unassigned) [Example 1372]
Response: 1.7

Hello, the source for this data is patent US10669272B2, in case you need it.
